In this section, each of the compounds is paired with its reported GI50.
- Tested on: SNB-75
- METHOD NOTES: Antitumor activity against human SNB75 cells after 48 hrs
- Format: functional
- RUN CONDITIONS: SNB-75, 48 h

[
  {
    "MOL SMILES": "COc1cc(OC)cc(/C(C#N)=C/c2ccc3ccccc3n2)c1",
    "UNIT SPEC": "nM",
    "GI50": 311
  },
  {
    "MOL SMILES": "COc1cc(/C(C#N)=C/c2ccc3ccccc3n2)cc(OC)c1OC",
    "UNIT SPEC": "nM",
    "GI50": 182
  },
  {
    "MOL SMILES": "COc1cc(OC)cc(/C(C#N)=C/c2cnc3ccccc3c2)c1",
    "UNIT SPEC": "nM",
    "GI50": 224
  },
  {
    "MOL SMILES": "COc1cc(/C(C#N)=C/c2cnc3ccccc3c2)cc(OC)c1OC",
    "UNIT SPEC": "nM",
    "GI50": 1490
  }
]

====

Measured GI50, listed per entry for reference.
- Test system: ACHN
- METHOD NOTES: Antitumor activity against human ACHN cells after 48 hrs
- Format: functional

[
  {
    "MOL SMILES": "COc1cc(/C(C#N)=C/c2cnc3ccccc3c2)cc(OC)c1OC",
    "GI50": "911 nM"
  },
  {
    "MOL SMILES": "COc1cc(OC)cc(/C(C#N)=C/c2cnc3ccccc3c2)c1",
    "GI50": "1190 nM"
  },
  {
    "MOL SMILES": "COc1cc(/C(C#N)=C/c2ccc3ccccc3n2)cc(OC)c1OC",
    "GI50": "1040 nM"
  },
  {
    "MOL SMILES": "COc1cc(OC)cc(/C(C#N)=C/c2ccc3ccccc3n2)c1",
    "GI50": "773 nM"
  }
]
